Entries and their ALANINE AMINOTRANSFERASE
- Species: Rattus norvegicus
- assay_name: DrugMatrix - Regimen: Daily Repeat
- Format: toxicity, organism-based, Sprague-Dawley
- Parameters: regimen Daily Repeat, gender Male, age 6-8 weeks
- test_conditions: in vivo, po, 1500 mg/kg, 72 h, tissue Plasma, route oral GAVAGE, dose level High, time 3 day, vehicle .5 % CMC
Please state the figure in u/L; there is no need to write the unit.

Query (compound): COC(=O)c1ccc(O)cc1 [METHYLPARABEN] ; field requested: ALANINE AMINOTRANSFERASE
60

* * *

Entries and their BLOOD UREA NITROGEN
- Species: Rattus norvegicus
- assay_name: DrugMatrix - Regimen: Daily Repeat
- Assay type: toxicity, organism-based, Sprague-Dawley
- Set-up: regimen Daily Repeat, gender Male, age 6-8 weeks
- test_conditions: in vivo, po, 2000 mg/kg, 72 h, tissue Plasma, route oral GAVAGE, dose level High, time 3 day, vehicle .5 % CMC
Please state the figure in mg/dL; there is no need to write the unit.

Reference set (3 entries):
NCC(=O)O [GLYCINE] : 12
CC(=O)O[C@]1(C(C)=O)CC[C@H]2[C@@H]3C=C(Cl)C4=CC(=O)CC[C@]4(C)[C@H]3CC[C@@]21C [CHLORMADINONE ACETATE] : 16.33
CC(C)[C@H](N)C(=O)OCCOCn1cnc2c(=O)[nH]c(N)nc21 [VALACYCLOVIR] : 79.33

Okay, now this compound:
Query (compound): NCCCC[C@H](N[C@@H](CCc1ccccc1)C(=O)O)C(=O)N1CCC[C@H]1C(=O)O [LISINOPRIL ANHYDROUS] ; field requested: BLOOD UREA NITROGEN
26.67

The origin of these recorded values is ChEMBL document CHEMBL3885881.
